System: Felis catus
assay.method.text: Numerical score on cat behavior was measured at a dose of 10 mg/kg, administered subcutaneously.
Assay type: functional
details: route subcutaneous
Think of 0.5 as a floor: if Cat score stands on it or above, it is 1 (yes); beneath it, 0 (no).

Illustrative cases are given below, each with its answer.
CCOc1cc(OC)c(C[C@H](N)CC)cc1OC.Cl :: 1 (yes)
CCCc1cc(OC)c(CC(N)CC)cc1OC.Cl (racemic) :: 1 (yes)
CCc1cc(OC)c(C[C@@H](N)CC)cc1OC.Cl :: 1 (yes)
CC[C@@H](N)Cc1cc(OC)c(I)cc1OC.Cl :: 1 (yes)
CC[C@@H](N)Cc1cc(OC)c(OC(C)C)cc1OC.Cl :: 0 (no)
CCCCc1cc(OC)c(C[C@H](N)CC)cc1OC.Cl :: 0 (no)
CCC(N)Cc1cc(OC)c(Br)cc1OC.Cl (racemic) :: 1 (yes)
CC[C@H](N)Cc1cc(OC)c(Br)cc1OC.Cl :: 1 (yes)
CCCOc1cc(OC)c(CC(N)CC)cc1OC.Cl (racemic) :: 0 (no)

Q: Please check the record CCCOc1cc(OC)c(C[C@H](N)CC)cc1OC.Cl and state if its Cat score is at or above 0.5.
A: 1 (yes)

* * *

Organism: Rattus norvegicus
assay.method.text: Potency to produce a significant increase in avoidance responding in rat relative to BL-3912A
Assay type: functional
This listing pairs molecules with measured Relative potency.
The answer should be a number; do not append a unit.

A selection of reference data follows.
CC[C@@H](N)Cc1cc(OC)c(Cl)cc1OC.Cl :: 0.25
CCCc1cc(OC)c(C[C@H](N)CC)cc1OC.Cl :: 5
CC[C@@H](N)Cc1cc(OC)c(Br)cc1OC.Cl :: 2.5

Q: Entry CCc1cc(OC)c(C[C@H](N)CC)cc1OC.Cl needs its Relative potency filled in; supply it.
A: 2.5

Q: Check the records and state Relative potency for CC[C@@H](N)Cc1cc(OC)c(C)cc1OC.Cl [DIMOXAMINE HYDROCHLORIDE]
A: 1

* * *

Below, each entry is listed alongside its reported minimal effective dose.
Test system: Rattus norvegicus
assay.method.text: Minimal dose (ip) required to produce a significant increase in avoidance responding in rat
Assay type: functional
details: read-out: MED
The response must be a number in mg/kg with no trailing unit.

Recorded minimal effective dose, per entry:
CCCc1cc(OC)c(C[C@H](N)CC)cc1OC.Cl :: 1
CC[C@@H](N)Cc1cc(OC)c(Cl)cc1OC.Cl :: 20
CCc1cc(OC)c(C[C@H](N)CC)cc1OC.Cl :: 2
CC[C@@H](N)Cc1cc(OC)c(Br)cc1OC.Cl :: 2

Q: Provide only the value of recorded minimal effective dose for CC[C@@H](N)Cc1cc(OC)c(C)cc1OC.Cl [DIMOXAMINE HYDROCHLORIDE]
A: 5

* * *

The entries below are paired with their reported Cat score.
Tested on: Felis catus
assay.method.text: Numerical score on cat behavior was measured at a dose of 10 mg/kg, administered subcutaneously.
Type: functional
details: route subcutaneous

Q: Read the entry CCC(N)Cc1cc(OC)ccc1OC.Cl (racemic) and write its reported Cat score.
A: 2

* * *

Tested on: Felis catus
assay.method.text: Numerical score on cat behavior was measured at a dose of 10 mg/kg, administered subcutaneously.
Type: functional
details: route subcutaneous
Response key: Yes means Cat score >= 2; No means Cat score < 2.

Q: # check: Cat score of CCC(N)Cc1cc(OC)c(SC)cc1OC.Cl (racemic) is greater than or equal to 2
A: No

Q: Could you verify whether the entry CC[C@@H](N)Cc1cc(OC)c(C(C)C)cc1OC.Cl shows Cat score of no less than 2?
A: No

Q: In plain terms: is recorded Cat score at least 2 for CCCc1cc(OC)c(C[C@H](N)CC)cc1OC.Cl ?
A: No

Q: Could you tell me if the measured Cat score of CC[C@H](N)Cc1cc(OC)c(SC)cc1OC.Cl reaches 2 or more?
A: No

Q: Given the entry CC[C@@H](N)Cc1cc(OC)c([N+](=O)[O-])cc1OC.Cl , answer whether its Cat score meets or surpasses 2.
A: Yes

Q: Form field: Cat score at least 2? Entry: CC[C@@H](N)Cc1cc(OC)c(N)cc1OC.Cl
A: No

Q: Threshold query (Cat score >= 2) on CC[C@@H](N)Cc1cc(OC)c(Cl)cc1OC.Cl
A: Yes

The reported measurements were obtained from ChEMBL document CHEMBL1121385.
